- System: CAF#3 (primary prostate cancer-associated fibroblasts of myCAF-like type)
- assay: drug sensitivity score (DSS2, normalised partial AUC of dose-response, 72 h CellTiter-Glo viability) (DSS (dimensionless)); higher = more sensitive (stronger growth inhibition / cytotoxicity); extreme values may be limits of the assay
Examples of molecules with documented drug sensitivity score follow.

molecule	drug sensitivity score
COc1ccc(CCc2nc3cc(-c4c(C)noc4C)ccc3n2C[C@H](C)N2CCOCC2)cc1Cl [SGC-CBP30] (tested concentration range 2.5-25000 nM)	5.4
C[C@@H]1CN(CC(=O)Nc2ccc3c(c2)Cc2cccc(-c4cc(=O)cc(N5CCOCC5)o4)c2S3)C[C@H](C)O1 (tested concentration range 2.5-25000 nM)	0.2
Cn1cncc1[C@@](N)(c1ccc(Cl)cc1)c1ccc2c(c1)c(-c1cccc(Cl)c1)cc(=O)n2C [Tipifarnib] (tested concentration range 1-10000 nM)	7.3
Nc1nc2cc(-c3ccc4ncc(C(=O)N5CCOCC5)n4c3)ccc2o1 [Serabelisib] (tested concentration range 1-10000 nM)	4.2
Cn1cnc2c(F)c(Nc3ccc(Br)cc3F)c(C(=O)NOCCO)cc21 [Binimetinib] (tested concentration range 0.1-1000 nM)	0
CCc1cnn2c(NCc3ccc[n+]([O-])c3)cc(N3CCCC[C@H]3CCO)nc12 [Dinaciclib] (tested concentration range 0.1-1000 nM)	12.3
Cn1cc(C2=C(c3cn(C4CCN(Cc5ccccn5)CC4)c4ccccc34)C(=O)NC2=O)c2ccccc21 [Enzastaurin] (tested concentration range 1-10000 nM)	0
Cc1ccc(Nc2nccc(N(C)c3ccc4c(C)n(C)nc4c3)n2)cc1S(N)(=O)=O [Pazopanib] (tested concentration range 1-10000 nM)	4
COc1cc(Nc2ncc(F)c(Nc3ccc4c(n3)N(COP(=O)(O)O)C(=O)C(C)(C)O4)n2)cc(OC)c1OC [Fostamatinib] (tested concentration range 0.2-2500 nM)	6.6
CC[C@]12C=CCN3CC[C@@]4(c5cc([C@@]6(C(=O)OC)C[C@@H]7C[C@@H](C(C)(F)F)CN(Cc8c6[nH]c6ccccc86)C7)c(OC)cc5N(C)[C@H]4[C@@](O)(C(=O)OC)[C@@H]1OC(C)=O)[C@@H]32 [Vinflunine] (tested concentration range 0.1-1000 nM)	2
O=c1[nH]c(=O)n([C@H]2C[C@H](O)[C@@H](CO)O2)cc1C(F)(F)F [Trifluridine] (tested concentration range 1-10000 nM)	0
O=c1sn(-c2cccc3ccccc23)c(=O)n1Cc1ccccc1 [Tideglusib] (tested concentration range 0.3-3000 nM)	0
